pIC50: −log10 of the molar value.
Parameter pIC50, tested on Caspase-1 (Homo sapiens, UniProt P29466), listed per item.
Sequence (P29466 120-297 limits assumed): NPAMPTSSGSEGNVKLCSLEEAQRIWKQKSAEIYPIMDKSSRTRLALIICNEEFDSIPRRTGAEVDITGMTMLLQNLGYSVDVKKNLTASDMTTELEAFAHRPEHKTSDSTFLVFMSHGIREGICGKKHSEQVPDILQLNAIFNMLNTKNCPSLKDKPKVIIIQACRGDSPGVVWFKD
Sequence (P29466 317-404 limits assumed): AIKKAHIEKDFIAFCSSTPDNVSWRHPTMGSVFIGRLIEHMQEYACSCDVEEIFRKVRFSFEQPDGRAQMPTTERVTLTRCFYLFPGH
Recorded endpoint: pIC50

{"Molecule": "CC(C)(C)CC(c1nnnn1CCCC(=O)N1CCc2ccccc2C1)N(Cc1ccc(F)cc1)CC(O)CC(=O)O (centres undefined)", "Tgt": "Caspase-1 (Homo sapiens, UniProt P29466)", "Recorded endpoint": "pIC50", "Result number": 4.90}
{"Molecule": "CC(C)CC(c1nnnn1CCCC(=O)N1CCc2ccccc2C1)N(Cc1ccc(F)cc1)CC(O)CC(=O)O (centres undefined)", "Tgt": "Caspase-1 (Homo sapiens, UniProt P29466)", "Recorded endpoint": "pIC50", "Result number": 4.68}
{"Molecule": "CC(C)(C)CC(c1nnnn1CCCC(=O)N1CCc2ccccc2C1)N(Cc1ccccc1)CC(O)CC(=O)O (centres undefined)", "Tgt": "Caspase-1 (Homo sapiens, UniProt P29466)", "Recorded endpoint": "pIC50", "Result number": 4.99}
{"Molecule": "O=C(O)CC(O)CNC(c1ccccc1)c1nnnn1CCCC(=O)N1CCc2ccccc2C1 (centres undefined)", "Tgt": "Caspase-1 (Homo sapiens, UniProt P29466)", "Recorded endpoint": "pIC50", "Result number": 4.03}

###

As shown below, each of these molecules has a reported Activity value.
- Tgt: UniProt:P29466
- Protocol: Inhibition of caspase 1 (unknown origin) assessed as enzyme residual activity using YVAD-AFC as substrate at 100 uM by fluorescence analysis
Recorded endpoint: Activity (%)

{"Molecule": "O=C(O)CC(O)CN[C@@H](c1cccs1)c1nnnn1CCCC(=O)NCc1ccccc1 (some centres not stated)", "Result number": 49.6}
{"Molecule": "O=C(O)C[C@H](O)CN[C@@H](c1ccccc1)c1nnnn1CCCC(=O)NCc1ccccc1", "Result number": 62.4}
{"Molecule": "O=C(O)CC(O)CN[C@H](c1ccccc1)c1nnnn1CCCC(=O)N1CCc2ccccc2C1 (some centres not stated)", "Result number": 40.5}
{"Molecule": "O=C(O)CC(O)CNC(c1cccs1)c1nnnn1CCCC(=O)N1CCc2ccccc2C1 (configuration not stated)", "Result number": 77.2}
{"Molecule": "O=C(O)CC(O)CN[C@H](c1cccs1)c1nnnn1CCCC(=O)N1CCc2ccccc2C1 (some centres not stated)", "Result number": 37.2}
{"Molecule": "COc1cc2c(cc1OC)CN(C(=O)CCCn1nnnc1C(NCC(O)CC(=O)O)C(C)(C)C)CC2 (configuration not stated)", "Result number": 96.7}
{"Molecule": "CC(C)CC(c1nnnn1CCCC(=O)N1CCc2ccccc2C1)N(Cc1ccccc1)CC(O)CC(=O)[O-].[Na+] (configuration not stated)", "Result number": 2.47}

###

- Tgt: UniProt:P29466
- Protocol: Inhibition of caspase 1 (unknown origin) assessed as enzyme residual activity using YVAD-AFC as substrate at 100 uM by fluorescence analysis
Classify by Activity. Ranges: lower segment (below 10%), middle segment (10% to below 60%), upper segment (60% or more)

{"Molecule": "O=C(O)CC(O)CNC(c1nnnn1CCCC(=O)N1CCc2ccccc2C1)C1CC1 (centres undefined)", "Tgt": "UniProt:P29466", "Class label": "upper segment"}
{"Molecule": "COc1cc2c(cc1OC)CN(C(=O)CCCn1nnnc1C(NCC(O)CC(=O)O)C1CC1)CC2 (centres undefined)", "Tgt": "UniProt:P29466", "Class label": "upper segment"}
{"Molecule": "O=C(O)CC(O)CNC(c1nnnn1CCCC(=O)NCc1ccccc1)C1CC1 (centres undefined)", "Tgt": "UniProt:P29466", "Class label": "upper segment"}
{"Molecule": "CC(C)CC(c1nnnn1CCCC(=O)N1CCc2ccccc2C1)N(Cc1ccc(F)cc1)CC(O)CC(=O)O (centres undefined)", "Tgt": "UniProt:P29466", "Class label": "lower segment"}
{"Molecule": "O=C(O)CC(O)CN[C@@H](c1cccs1)c1nnnn1CCCC(=O)N1CCc2ccccc2C1 (some centres undefined)", "Tgt": "UniProt:P29466", "Class label": "middle segment"}
{"Molecule": "CC(C)(C)C[C@H](c1nnnn1CCCC(=O)N1CCc2ccccc2C1)N(Cc1ccccc1)CC(O)CC(=O)O (some centres undefined)", "Tgt": "UniProt:P29466", "Class label": "lower segment"}
{"Molecule": "CC(C)(C)CC(c1nnnn1CCCC(=O)N1CCc2ccccc2C1)N(Cc1ccccc1)CC(O)CC(=O)O (centres undefined)", "Tgt": "UniProt:P29466", "Class label": "lower segment"}
{"Molecule": "CC(C)(C)CC(NCC(O)CC(=O)[O-])c1nnnn1CCCC(=O)N1CCc2ccccc2C1.[Na+] (centres undefined)", "Tgt": "UniProt:P29466", "Class label": "lower segment"}
{"Molecule": "O=C(O)CC(O)CNC(c1ccccc1)c1nnnn1CCCC(=O)N1CCc2ccccc2C1 (centres undefined)", "Tgt": "UniProt:P29466", "Class label": "middle segment"}
{"Molecule": "O=C(O)CC(O)CN[C@@H](c1ccccc1)c1nnnn1CCCC(=O)N1CCc2ccccc2C1 (some centres undefined)", "Tgt": "UniProt:P29466", "Class label": "middle segment"}
{"Molecule": "CC(C)(C)CC(c1nnnn1CCCC(=O)N1CCc2ccccc2C1)N(Cc1ccc(F)cc1)CC(O)CC(=O)O (centres undefined)", "Tgt": "UniProt:P29466", "Class label": "lower segment"}
{"Molecule": "O=C(O)C[C@H](O)CN[C@H](c1cccs1)c1nnnn1CCCC(=O)NCc1ccccc1", "Tgt": "UniProt:P29466", "Class label": "upper segment"}
{"Molecule": "CC(C)C(NCC(O)CC(=O)O)c1nnnn1CCCC(=O)N1CCc2ccccc2C1 (centres undefined)", "Tgt": "UniProt:P29466", "Class label": "upper segment"}
{"Molecule": "CC(C)CC(NCC(O)CC(=O)O)c1nnnn1CCCC(=O)N1CCc2ccccc2C1 (centres undefined)", "Tgt": "UniProt:P29466", "Class label": "middle segment"}
{"Molecule": "CC(C)(C)C(NCC(O)CC(=O)O)c1nnnn1CCCC(=O)N1CCc2ccccc2C1 (centres undefined)", "Tgt": "UniProt:P29466", "Class label": "upper segment"}
{"Molecule": "COc1cc2c(cc1OC)CN(C(=O)CCCn1nnnc1C(CC(C)(C)C)NCC(O)CC(=O)O)CC2 (centres undefined)", "Tgt": "UniProt:P29466", "Class label": "lower segment"}
{"Molecule": "O=C(O)C[C@@H](O)CN[C@H](c1ccccc1)c1nnnn1CCCC(=O)NCc1ccccc1", "Tgt": "UniProt:P29466", "Class label": "upper segment"}
